Tested on: MS2 coat protein
Assay: apparent KD of MS2 coat protein; higher = weaker reporter binding
Conditions: Eterna round: R107; input ligand: arginine 13.2 mM
Returns criterion met if the recorded apparent KD of MS2 coat protein is greater than or equal to 50 nM, and criterion not met otherwise.

Input sequence: CCCAAGCCAGCUGAUACCAGUGACGUGGUCAGAAUGUGCGACAUGAGGAUCACCCAUGUACACCCUUGGCAGCAGUAGAACGGUU [theeternabot_exclusion_MS2_Theo_B_47]
Category label: criterion not met

Input sequence: ACAUGAAGAACAGCGGUGGGCGCGCUCGAUACCAGUAUUUUAACCUACCCUUGGCAGCGACAUGAGGAUCACCCAUGUGAGAUGA [XTheo A #7]
Category label: criterion not met

Input sequence: UGGGUAGCAUAGAUUGAUAGUUAAACUGAAGGAGCGAGAAUAAUCUCAGGUAGGUCGCAGACAUGAGGAUCACCCAUGUAGAUGG [Same State Arginine A GF16]
Category label: criterion not met

Input sequence: AAAGAUCGGAAACGAUCGGCGGCUUGGGCGCGAGGACCGGUACGGCCGCCACUCGGGCAACAUGAGGAUCACCCAUGUUCCUCAU [ETA NP+V+V2 #17]
Category label: criterion met

Input sequence: CGACACAUGAGGAUCACCCAUGUAAUGACGCGAGGACCGGUACGGCCGCCACUCGCAUGCCAAUGAGCGCAUGCGGCCUGGGUAU [Exclusion Tryp A GF6]
Category label: criterion not met

Input sequence: ACAUGAGGAUCACCCAUGUAUUACCGGGAAGGAGCGGCCGGAAGGCCAGGUAGGUCGCUCGGCGUCGUGCUGUAAAGCACGACGA [#1 Same State - Arginine A Attempt #27 (HarryS)]
Category label: criterion not met

Input sequence: AAUCUGUCGGGUGAUACCAGCCUCGGCACGUCUCGUGCCGAACAUGAGGAUCACCCAUGUGGCCCUUGGCAGCACAUGACAAAUC [Teaton]
Category label: criterion met

Input sequence: ACAUGAAGAACAGCGGUGGGCGCGCUCGAUACCAGUACUUUGAAAUACCCUUGGCAGCGACAUGAGGAUCACCCAUGUGAGAUGA [XTheo A #3]
Category label: criterion not met

Input sequence: CUUGAUAACUGAAGGAGCGAGAAACCCUACAUGAGGAUCACCCAUGUAUACACGGGAACUUCUCAGGUAGGUCGCAGUAUGUCAA [Teveor]
Category label: criterion met

Input sequence: GGUUGGUGUGGAGACAUAUUGAUCACUGAAGGAGCGGGAAUAAACCCAGGUAGGUCGCAGAGAUCCACAUGAGGAUCACCCAUGU [!0.Q]
Category label: criterion met

Input sequence: AGUCUUAAAGGAAGGAGCGCAGUCAUAACAUGAGGAUCACCCAUGUCGAUGUGAGGGUCAUUGCAGGUAGGUCGCCUUACUAAGA [Same State - Arginine B (Freestyle 5)]
Category label: criterion not met

Input sequence: CUCUGAGUCCGCAAGGACUCAGAGGCGGAUACCAGCGAGGUCCAUCGCCCUUGGCAGCCGAACAUGAGGAUCACCCAUGUCGGUA [#1 Same State - Theophylline A Attempt #27 (HarryS)]
Category label: criterion not met

Input sequence: CAACUGCUUGAGCUUACUUAUUGGACUUCCCGAGGACCGGUACGGCCGCCACUCGCAGGGACACAUGAGGAUCACCCAUGUAAAG [theeternabot_exclusion_MS2_Trp_A_42]
Category label: criterion not met

Input sequence: AGCCACUCGAGUGAUCCUCACGAGUGGCUACGAGGACCGGUACGGCCGCCACUCGAAUUAACAUGAGGAUCACCCAUGUAAUAAU [Brourdmod03]
Category label: criterion not met

Input sequence: GGAUAGGACACGGCCGCCACUACCUAGGAUACUAGCAACAUUUGGGUACGUGAGGAUCACCCACGUAGGACCGGGUGUCCUAUCG
Category label: criterion not met

Input sequence: AUGUCGUUGAAUACAGCGGCAUGGUGUGAUACCAGAAUGAUCAAAUUCCCUUGGCAGCAUCACAUGAGGAUCACCCAUGUUAAGG [SSTheo A #17]
Category label: criterion not met
